# residual activity annotations
# system-name: EPHB2 (human) (UniProt P29323)
# Sequence (P29323 whole entry, looked up): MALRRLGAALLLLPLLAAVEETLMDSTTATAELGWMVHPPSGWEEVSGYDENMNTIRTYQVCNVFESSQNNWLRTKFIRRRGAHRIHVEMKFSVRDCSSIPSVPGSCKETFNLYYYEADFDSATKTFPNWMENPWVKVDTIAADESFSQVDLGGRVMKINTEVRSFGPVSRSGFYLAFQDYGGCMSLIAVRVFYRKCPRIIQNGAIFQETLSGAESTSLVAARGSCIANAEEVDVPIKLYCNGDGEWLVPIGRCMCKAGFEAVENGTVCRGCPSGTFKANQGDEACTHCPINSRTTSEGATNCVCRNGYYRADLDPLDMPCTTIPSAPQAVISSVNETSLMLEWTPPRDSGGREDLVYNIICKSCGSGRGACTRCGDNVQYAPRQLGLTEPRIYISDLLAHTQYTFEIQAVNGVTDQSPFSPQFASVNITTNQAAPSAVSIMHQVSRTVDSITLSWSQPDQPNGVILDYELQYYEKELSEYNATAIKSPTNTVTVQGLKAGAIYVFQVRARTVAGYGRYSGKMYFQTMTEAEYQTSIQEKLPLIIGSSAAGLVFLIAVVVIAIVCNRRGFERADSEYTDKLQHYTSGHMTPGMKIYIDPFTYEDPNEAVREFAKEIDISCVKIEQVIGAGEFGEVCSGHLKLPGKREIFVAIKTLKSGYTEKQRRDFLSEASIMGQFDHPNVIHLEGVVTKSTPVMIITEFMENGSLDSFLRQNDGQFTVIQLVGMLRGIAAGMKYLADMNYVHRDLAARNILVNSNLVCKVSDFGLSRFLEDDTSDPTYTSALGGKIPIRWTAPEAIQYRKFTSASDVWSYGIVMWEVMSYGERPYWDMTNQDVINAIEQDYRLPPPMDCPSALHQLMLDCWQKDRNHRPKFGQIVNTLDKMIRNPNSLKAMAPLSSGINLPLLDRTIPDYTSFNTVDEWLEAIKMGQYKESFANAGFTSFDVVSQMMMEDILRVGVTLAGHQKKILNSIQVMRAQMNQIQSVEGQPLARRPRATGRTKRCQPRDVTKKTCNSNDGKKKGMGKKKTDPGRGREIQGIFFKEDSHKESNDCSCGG
# test: radiometric filter-binding kinase assay, Kinase HotSpot
# experimental-conditions: compound 0.5 µM; ATP 10 µM

{"columns": ["mol-smiles", "residual activity"],
 "data": [
  ["CCCCc1c(-c2ccc(OC)cc2)[nH]c2nccnc12", "88.8%"],
  ["Cn1c2ccccc2c2c3c(c4c5ccccc5n(CCC#N)c4c21)CNC3=O", "77.7%"],
  ["C[C@@H]1CCN(C(=O)CC#N)C[C@@H]1N(C)c1ncnc2[nH]ccc12", "100%"],
  ["COc1cc2ncnc(Nc3ccc(Oc4ccccc4)cc3)c2cc1OC", "99.7%"],
  ["c1ccc2c(-c3ccncc3)c[nH]c2c1", "114%"],
  ["Cc1nc(-c2ccccc2)c(-c2ccncc2)o1", "99.8%"],
  ["Cc1cccc(-c2nc(C(C)(C)C)[nH]c2-c2ccc3c(c2)OCO3)n1", "93%"],
  ["COc1ccc(C(=O)Nc2sc3c(c2C(N)=O)CCCC3)cc1OC", "73.5%"],
  ["COc1cc(Nc2c(C#N)cnc3cc(OCCCN4CCN(C)CC4)c(OC)cc23)c(Cl)cc1Cl", "17.4%"],
  ["CN(C)S(=O)(=O)c1ccc2c(c1)/C(=C/c1cc3c([nH]1)CCCC3)C(=O)N2", "98.4%"],
  ["Fc1ccc(-c2nc3n(c2-c2ccncc2)CCS3)cc1", "99.3%"],
  ["Ic1cccc(CSc2nnc(-c3ccncc3)o2)c1", "87.7%"],
  ["COc1ccc2c(c1)/C(=C/c1cnc[nH]1)C(O)=N2", "100%"],
  ["O=C1Nc2ccc(Br)cc2/C1=C\\c1cc2c([nH]1)CCCC2", "85.4%"],
  ["O=C1c2ccccc2-c2nc3nnnn3nc21", "86.1%"],
  ["COc1cc2ncnc(Nc3ccc(OCc4ccccc4)cc3)c2cc1OC", "93.9%"],
  ["COc1ccc2c(c1)c(C1=C(c3c[nH]c4ccccc34)C(=O)NC1=O)cn2CCCN(C)C", "78.7%"],
  ["CS(=O)(=O)CCNCc1ccc(-c2ccc3ncnc(Nc4ccc(OCc5cccc(F)c5)c(Cl)c4)c3c2)o1", "101%"],
  ["CN(C)c1ccc(/C=C2\\C(=O)Nc3ccccc32)cc1", "86.5%"],
  ["N#C/C(=C\\c1ccc(O)c(O)c1)C(=O)NCc1ccccc1", "99.7%"],
  ["CN(C)CCCn1cc(C2=C(c3c[nH]c4ccccc34)C(=O)NC2=O)c2ccccc21", "100%"],
  ["CC(C)(C)c1cc(C=C(C#N)C#N)cc(Br)c1O", "100%"],
  ["O=C(c1cc2cc(O)ccc2[nH]1)c1cc2cc(O)ccc2[nH]1", "76.7%"]
]}

###

Reported residual activity values for a set of compounds
# system-name: STK11 (human)
# test: radiometric filter-binding kinase assay, Kinase HotSpot
# experimental-conditions: compound 0.5 µM; ATP 10 µM
experimental-readout: residual activity (%)

{"columns": ["mol-smiles", "numeric-value"],
 "data": [
  ["Cc1nc(-c2ccccc2)c(-c2ccncc2)o1", 98.4],
  ["O=C1C(Cl)=C(N2C(=O)CCC2=O)C(=O)c2ccccc21", 99.8],
  ["O=C1NC(=O)c2c1c1c3ccccc3[nH]c1n1cncc21", 45.2],
  ["COc1ccc(S(=O)(=O)N(CCO)c2ccccc2CN(C)C/C=C/c2ccc(Cl)cc2)cc1", 97.7],
  ["CCCCc1c(-c2ccc(OC)cc2)[nH]c2nccnc12", 74.5],
  ["COc1ccc(C(=O)Nc2sc3c(c2C(N)=O)CCCC3)cc1OC", 103]
]}

###

# system-name: RPS6KA2 KD1 KD2 (human)
# test: radiometric filter-binding kinase assay, Kinase HotSpot
# experimental-conditions: compound 0.5 µM; ATP 10 µM

{"columns": ["mol-smiles", "result-unit", "residual activity"],
 "data": [
  ["COc1ccc2c(c1)/C(=C/c1cnc[nH]1)C(O)=N2", "%", 44.3],
  ["CN(C)S(=O)(=O)c1ccc2c(c1)/C(=C/c1cc3c([nH]1)CCCC3)C(=O)N2", "%", 52.8],
  ["CO[C@@H]1[C@H](N(C)C(=O)c2ccccc2)C[C@H]2O[C@]1(C)n1c3ccccc3c3c4c(c5c6ccccc6n2c5c31)C(=O)NC4", "%", 3.06],
  ["Fc1ccc(-c2nc3n(c2-c2ccncc2)CCS3)cc1", "%", 97.1],
  ["COc1ccc(S(=O)(=O)N(CCO)c2ccccc2CN(C)C/C=C/c2ccc(Cl)cc2)cc1", "%", 99.2],
  ["COc1cc2ncnc(Nc3ccc(Oc4ccccc4)cc3)c2cc1OC", "%", 98],
  ["c1ccc2c(-c3ccncc3)c[nH]c2c1", "%", 89],
  ["COc1ccc(C(=O)Nc2sc3c(c2C(N)=O)CCCC3)cc1OC", "%", 112],
  ["Cc1cncc2cccc(S(=O)(=O)N3CCCN(C(=O)CN)C[C@H]3C)c12", "%", 89.2],
  ["O=C1Nc2ccc(Br)cc2/C1=C\\c1cc2c([nH]1)CCCC2", "%", 72]
]}

###

List of residual activity values.
# system-name: DDR2 (human) (UniProt Q16832)
# Sequence (Q16832 whole entry, looked up): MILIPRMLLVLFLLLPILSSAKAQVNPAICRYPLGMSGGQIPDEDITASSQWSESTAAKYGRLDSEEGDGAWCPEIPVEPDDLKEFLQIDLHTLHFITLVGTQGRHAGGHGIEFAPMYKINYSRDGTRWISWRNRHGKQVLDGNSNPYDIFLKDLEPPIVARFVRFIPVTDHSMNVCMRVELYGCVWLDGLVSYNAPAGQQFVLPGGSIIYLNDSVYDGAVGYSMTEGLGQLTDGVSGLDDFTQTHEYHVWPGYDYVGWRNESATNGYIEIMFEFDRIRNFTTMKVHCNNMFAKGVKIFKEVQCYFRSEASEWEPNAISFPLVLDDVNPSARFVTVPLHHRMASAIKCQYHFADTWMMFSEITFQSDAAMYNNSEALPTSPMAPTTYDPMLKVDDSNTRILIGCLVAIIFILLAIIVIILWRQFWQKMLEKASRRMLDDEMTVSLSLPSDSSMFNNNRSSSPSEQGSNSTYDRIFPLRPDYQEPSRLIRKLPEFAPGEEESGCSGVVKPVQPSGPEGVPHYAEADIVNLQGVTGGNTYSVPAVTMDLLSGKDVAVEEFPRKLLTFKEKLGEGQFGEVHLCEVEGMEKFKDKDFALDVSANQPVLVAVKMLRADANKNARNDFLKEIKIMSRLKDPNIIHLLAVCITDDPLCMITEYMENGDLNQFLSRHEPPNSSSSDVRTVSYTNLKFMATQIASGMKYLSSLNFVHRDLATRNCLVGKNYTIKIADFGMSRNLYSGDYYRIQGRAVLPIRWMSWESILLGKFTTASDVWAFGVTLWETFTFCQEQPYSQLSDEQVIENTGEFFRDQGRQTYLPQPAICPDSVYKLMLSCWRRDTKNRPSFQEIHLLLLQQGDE
# test: radiometric filter-binding kinase assay, Kinase HotSpot
# experimental-conditions: compound 0.5 µM; ATP 10 µM

{"columns": ["mol-smiles", "residual activity / %"],
 "data": [
  ["CS(=O)(=O)CCNCc1ccc(-c2ccc3ncnc(Nc4ccc(OCc5cccc(F)c5)c(Cl)c4)c3c2)o1", 107],
  ["CN(C)CCCn1cc(C2=C(c3c[nH]c4ccccc34)C(=O)NC2=O)c2ccccc21", 111],
  ["COc1cc(Nc2c(C#N)cnc3cc(OCCCN4CCN(C)CC4)c(OC)cc23)c(Cl)cc1Cl", 105],
  ["CCCCc1c(-c2ccc(OC)cc2)[nH]c2nccnc12", 94.3],
  ["O=C1NC(=O)c2c1c1c3ccccc3[nH]c1n1cncc21", 96.5],
  ["N#Cc1c[nH]c2c[nH]/c(=N\\Cc3cccnc3)cc2/c1=N\\c1ccc(F)c(Cl)c1", 91.9],
  ["Ic1cccc(CSc2nnc(-c3ccncc3)o2)c1", 103],
  ["N#C/C(=C\\c1ccc(O)c(O)c1)C(=O)NCc1ccccc1", 97.2],
  ["CC(C)(C)c1cc(C=C(C#N)C#N)cc(Br)c1O", 105],
  ["COc1cc2ncnc(Nc3ccc(Oc4ccccc4)cc3)c2cc1OC", 97.9],
  ["Cc1cncc2cccc(S(=O)(=O)N3CCCN(C(=O)CN)C[C@H]3C)c12", 103]
]}

###

# system-name: TSSK1B (human)
# test: radiometric filter-binding kinase assay, Kinase HotSpot
# experimental-conditions: compound 0.5 µM; ATP 10 µM

{"columns": ["mol-smiles", "system-name", "result-unit", "residual activity"],
 "data": [
  ["CN(C)c1ccc(/C=C2\\C(=O)Nc3ccccc32)cc1", "TSSK1B (human)", "%", 102],
  ["CN(C)CCCn1cc(C2=C(c3c[nH]c4ccccc34)C(=O)NC2=O)c2ccccc21", "TSSK1B (human)", "%", 89.8],
  ["COc1cc2ncnc(Nc3ccc(Oc4ccccc4)cc3)c2cc1OC", "TSSK1B (human)", "%", 104],
  ["Cc1cccc(-c2nc(C(C)(C)C)[nH]c2-c2ccc3c(c2)OCO3)n1", "TSSK1B (human)", "%", 103],
  ["c1ccc2c(-c3ccncc3)c[nH]c2c1", "TSSK1B (human)", "%", 103],
  ["O=C1NC(=O)c2c1c1c3ccccc3[nH]c1n1cncc21", "TSSK1B (human)", "%", 84.4],
  ["CC(C)(C)c1cc(C=C(C#N)C#N)cc(Br)c1O", "TSSK1B (human)", "%", 95.6],
  ["O=C1c2ccccc2-c2nc3nnnn3nc21", "TSSK1B (human)", "%", 88.7],
  ["Ic1cccc(CSc2nnc(-c3ccncc3)o2)c1", "TSSK1B (human)", "%", 97.6],
  ["O=C1C(Cl)=C(N2C(=O)CCC2=O)C(=O)c2ccccc21", "TSSK1B (human)", "%", 104],
  ["NC(=O)c1cccc(-c2cc(Nc3ccc(OC(F)(F)F)cc3)ncn2)c1", "TSSK1B (human)", "%", 95.4]
]}

###

# system-name: MAP3K11 (human) (UniProt Q16584)
# Sequence (Q16584 whole entry, looked up): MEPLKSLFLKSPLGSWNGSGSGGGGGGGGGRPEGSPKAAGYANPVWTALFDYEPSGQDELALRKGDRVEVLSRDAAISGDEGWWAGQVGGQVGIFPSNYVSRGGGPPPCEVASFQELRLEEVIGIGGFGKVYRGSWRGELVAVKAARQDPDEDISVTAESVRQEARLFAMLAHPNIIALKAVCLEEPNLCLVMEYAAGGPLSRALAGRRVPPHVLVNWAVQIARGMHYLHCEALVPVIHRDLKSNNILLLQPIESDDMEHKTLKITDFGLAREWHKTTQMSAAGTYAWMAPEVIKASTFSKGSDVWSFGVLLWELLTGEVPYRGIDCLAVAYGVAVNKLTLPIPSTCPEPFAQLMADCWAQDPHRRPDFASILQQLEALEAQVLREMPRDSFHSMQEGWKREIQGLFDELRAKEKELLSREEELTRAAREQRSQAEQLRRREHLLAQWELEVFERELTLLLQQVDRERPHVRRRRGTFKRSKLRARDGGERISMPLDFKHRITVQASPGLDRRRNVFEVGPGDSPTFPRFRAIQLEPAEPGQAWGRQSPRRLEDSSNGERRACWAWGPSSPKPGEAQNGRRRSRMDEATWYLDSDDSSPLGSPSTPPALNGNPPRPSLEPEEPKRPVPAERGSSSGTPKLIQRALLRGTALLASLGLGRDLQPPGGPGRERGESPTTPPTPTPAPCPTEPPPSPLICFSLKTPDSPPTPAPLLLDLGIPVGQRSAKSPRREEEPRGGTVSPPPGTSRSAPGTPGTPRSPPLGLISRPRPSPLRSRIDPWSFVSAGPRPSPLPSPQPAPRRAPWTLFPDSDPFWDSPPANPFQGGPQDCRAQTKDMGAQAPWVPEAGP
# test: radiometric filter-binding kinase assay, Kinase HotSpot
# experimental-conditions: compound 0.5 µM; ATP 10 µM

{"columns": ["mol-smiles", "result-unit", "residual activity"],
 "data": [
  ["O=C1NC(=O)c2c1c1c3ccccc3[nH]c1n1cncc21", "%", 57.5],
  ["N#C/C(=C\\c1ccc(O)c(O)c1)C(=O)NCc1ccccc1", "%", 97],
  ["COc1ccc(Cl)cc1NC(=O)Nc1cc(C)nc2ccccc12", "%", 89],
  ["Fc1ccc(-c2nc3n(c2-c2ccncc2)CCS3)cc1", "%", 95.7],
  ["CCCCc1c(-c2ccc(OC)cc2)[nH]c2nccnc12", "%", 39.4],
  ["NC(=O)c1cccc(-c2cc(Nc3ccc(OC(F)(F)F)cc3)ncn2)c1", "%", 99.4],
  ["CC(C)(C)c1cc(C=C(C#N)C#N)cc(Br)c1O", "%", 97.4],
  ["C[C@@H]1CCN(C(=O)CC#N)C[C@@H]1N(C)c1ncnc2[nH]ccc12", "%", 104],
  ["Cc1nc(-c2ccccc2)c(-c2ccncc2)o1", "%", 98.7],
  ["Cc1cncc2cccc(S(=O)(=O)N3CCCN(C(=O)CN)C[C@H]3C)c12", "%", 98.4],
  ["O=C1Nc2ccc(Br)cc2/C1=C\\c1cc2c([nH]1)CCCC2", "%", 16.8],
  ["COc1cc2ncnc(Nc3ccc(Oc4ccccc4)cc3)c2cc1OC", "%", 68.5],
  ["Ic1cccc(CSc2nnc(-c3ccncc3)o2)c1", "%", 99.6],
  ["CN(C)S(=O)(=O)c1ccc2c(c1)/C(=C/c1cc3c([nH]1)CCCC3)C(=O)N2", "%", 57.4],
  ["O=C1C(Cl)=C(N2C(=O)CCC2=O)C(=O)c2ccccc21", "%", 102],
  ["CN(C)CCCn1cc(C2=C(c3c[nH]c4ccccc34)C(=O)NC2=O)c2ccccc21", "%", 61]
]}

Provenance of the data: the kinase profiling compilation of Christmann-Franck et al. (2016)
